- Test system: Plasmodium berghei
- Test Description: Screen against P. berghei liver stage (PbLuc), transformed with Luciferase, at 10uM
- Assay type: functional, HepG2
- Protocol Conditions: tested at 10 uM
The whole screen tested about 69,000 compounds, of which about 8,600 (12%) showed an effect of 50% or more. This is one part of a sample in which strong results are shown more often than they occur.
# reported INHIBITION; entries follow

Here's what some known entries look like.
                                   molecule  quantity_measured  result
0  Cc1cc(=O)c2ccccc2n1CC1CCNC1 (stereo unspecified)         INHIBITION   12.8%
1  O=C1CSC(C(F)(F)F)c2c(O)nn(C3CCCC3)c2N1 (stereo unspecified)         INHIBITION   13.1%
2  Cn1ccnc1CNC(=O)N(CCCO)C1CCc2ccccc21 (stereo unspecified)         INHIBITION   8.05%
3  N[C@@H](Cc1ccccc1)c1nnc(S(=O)(=O)Cc2ccc(Cl)cc2)o1         INHIBITION   15.4%
4  c1ccc(CN2CC[C@@H]3O[C@@H](COCC4CCOCC4)CC[C@@H]32)nc1         INHIBITION   22.7%
5              CCOCCN1CCN(c2ccc(C#N)cn2)CC1         INHIBITION   45.4%
6    CCS(=O)(=O)c1nnc([C@@H](N)Cc2ccccc2)o1         INHIBITION   11.6%
7  N[C@@H](Cc1ccccc1)c1nnc(S(=O)(=O)Cc2ccccc2)o1         INHIBITION   53.8%
8  Cc1cc(=O)c2ccccc2n1CC1CCN(C(C)C)C1 (stereo unspecified)         INHIBITION   53.9%
9  c1cncc(COC[C@H]2CC[C@H]3[C@H](CCN3Cc3nccs3)O2)c1         INHIBITION   39.2%

Query: Recorded INHIBITION of `c1cncc(CN2CC[C@H]3O[C@@H](COCC4CCOCC4)CC[C@H]32)c1` , please.
Response: 33.4%

====

- Tested on: Plasmodium berghei
- Test Description: Screen against P. berghei liver stage (PbLuc), transformed with Luciferase, at 10uM
- Type: functional, HepG2
- Protocol Conditions: tested at 10 uM
Hit rate of the full screen: of about 69,000 compounds, about 8,600 (12%) showed an effect of 50% or more. The full list was thinned out, with strong results kept by preference.
# reported INHIBITION; entries follow
Answer with a number only, understood to be in %.

>>> print(df.to_string())
                                   compound  quantity_measured  units_text  numeric_result
0  C[C@@H]1CN(C2CCN(c3ccccc3F)CC2)CC[C@]1(C)O         INHIBITION           %            7.31
1   Cc1cnc2c(c1NCc1ccccn1)c(=O)n(C)c(=O)n2C         INHIBITION           %            8.31
2       Cc1cc(NC(=O)Cc2ccc3c(c2)OCO3)n(C)n1         INHIBITION           %            13.2
3  CNC(=O)CCc1cc(C2CCCN2C(=O)CO)nc(C)n1 (stereo not drawn)         INHIBITION           %            29.4

Query: Recorded INHIBITION of CCOCCN1CCN(Cc2cccc(C(=O)N(C)C)c2)CC1C (stereo not drawn) , please.
Response: -9.37

Query: Lookup Cc1cnc2n(c1=O)C(CC(=O)NCc1cccs1)CS2 (stereo not drawn)
Response: 6.09

Query: Lookup O=C(CO)N1CCCC(N2CCN(c3ccccc3F)CC2)C1 (stereo not drawn)
Response: 65.6

Query: Lookup `Cc1c(C(=O)NCCN2C(=O)CCC2=O)sc2ccc(F)cc12`
Response: -64.6

Query: Lookup `CC(=O)NCC(=O)N1CCc2c(CNc3ncccn3)cncc2C1`
Response: -2.17

Query: Lookup `CCn1cc(-c2cc(-c3cc(CC(=O)O)cs3)nc(N)c2C#N)c(C)n1`
Response: 37.6

Query: Lookup CC(c1cccnc1)N1CCN(CCCC#N)CC1 (stereo not drawn)
Response: 41.4

Query: Lookup CN1CCC2(COCc3cnc(N4CCOCC4)nc32)C1 (stereo not drawn)
Response: 51.3

Query: Lookup `Cc1cc(N2CCC(Cc3ccccc3)CC2)nc(-c2ccncc2)n1`
Response: 71.3

Query: Lookup `O[C@@H]1CN(CC2CC2)CC[C@H]1N1CCN(c2ccccc2F)CC1`
Response: 53.6

Query: Lookup `CCCS(=O)(=O)c1ccc(N2CCC(Cc3ccccc3)CC2)nn1`
Response: 23.7

Query: Lookup CC(=O)NCCNC(=O)CN1CCCC1Cn1nc(C)nc1C (stereo not drawn)
Response: 1.56

Query: Lookup `Oc1ccc(N2CCC(Cc3ccccc3)CC2)nn1`
Response: 83.8

Query: Lookup `CS(=O)(=O)c1ccc(NCc2ccc(F)cc2)cn1`
Response: -32.7

Query: Lookup `Cc1cnc2c(c1NCc1ccc(F)cc1)c(=O)n(C)c(=O)n2C`
Response: 51.2
